- TEST TARGET: TFIIIA (Xenopus laevis)
- Type: binding
- Parameters: Immature ovarian tissue was dissected from 4-5 cm female X. laevis frogs; from tissue; host or cells: immature ovarian tissue (oocytes) of Xenopus laevis; 7S particles, 5S RNA removed with RNase A
- MEASUREMENT PARAMETERS: loss of DNase I protection, nucleotides +43 to +96; TFIIIA preincubated with metal
- Experimental: Inhibition of TFIIIA binding to the 5S ribosomal RNA gene was assayed by the DNase I protection method. […] The end-labeled fragment was ethanol precipitated, redigested with BamHI and the smaller fragment was purified by PAGE. Specific activity of the fragment was determined by absorbance at 260 nm and Cerenkov counting. […]
READOUT LABEL: concentration at which TFIIIA binding to the 5S RNA gene is inhibited (µM)
Answers are plain numbers, in µM.

# COMPOUND, NUMBER
data = [
    ("[Cl][Cd][Cl] [Cd^2+, CdCl2]", 0.1),
]

// moving on: another record for concentration at which TFIIIA binding to the 5S RNA gene is inhibited
[ask] Quote concentration at which TFIIIA binding to the 5S RNA gene is inhibited reported for [Cl][Al]([Cl])[Cl] [Al^3+, AlCl3] please.
[reply] 3

* * *

- TEST TARGET: TFIIIA (Xenopus laevis, UniProt P03001)
- Sequence (P03001 23-366): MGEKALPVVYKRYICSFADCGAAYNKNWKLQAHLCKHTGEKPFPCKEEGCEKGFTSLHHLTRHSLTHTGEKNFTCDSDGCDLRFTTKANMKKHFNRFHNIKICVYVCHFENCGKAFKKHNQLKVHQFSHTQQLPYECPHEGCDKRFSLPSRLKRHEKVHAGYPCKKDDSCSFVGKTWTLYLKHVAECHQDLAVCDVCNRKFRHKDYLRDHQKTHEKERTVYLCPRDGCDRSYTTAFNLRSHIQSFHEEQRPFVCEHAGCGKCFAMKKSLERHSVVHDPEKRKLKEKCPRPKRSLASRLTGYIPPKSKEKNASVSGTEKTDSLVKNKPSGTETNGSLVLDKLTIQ
- Type: binding
- Parameters: Immature ovarian tissue was dissected from 4-5 cm female X. laevis frogs; from tissue; host or cells: immature ovarian tissue (oocytes) of Xenopus laevis; 7S particles, 5S RNA removed with RNase A
- MEASUREMENT PARAMETERS: general statement
READOUT LABEL: TFIIIA zinc finger affected by xenobiotic

# COMPOUND, RESULT
rows = [
    ("[Cl][Al]([Cl])[Cl] [Al^3+, AlCl3]", "affected"),
    ("[Cl][Mn][Cl] [Mn^2+]", "not"),
    ("[Cl][Pb][Cl] [PbCl2]", "affected"),
    ("[Cl][Cd][Cl] [Cd^2+, CdCl2]", "affected"),
    ("[Cl-].[Cs+] [Cs^2+]", "not"),
]

With those in mind, consider the next compound.
[ask] Please report the measured TFIIIA zinc finger affected by xenobiotic for O=[Se]([O-])[O-].[Na+].[Na+] [Na2SeO3]
[reply] affected
